pIC50 by entry:
molecular target: BTK (Homo sapiens (Human), UniProt Q06187); experiment: Omnia assay for potency assessment against BTK; assay type: biochemical; conditions: [BTK]=5 nM, Omnia assay; read-out: BTK Inhibition (IC50)
Sequence (Q06187 whole entry): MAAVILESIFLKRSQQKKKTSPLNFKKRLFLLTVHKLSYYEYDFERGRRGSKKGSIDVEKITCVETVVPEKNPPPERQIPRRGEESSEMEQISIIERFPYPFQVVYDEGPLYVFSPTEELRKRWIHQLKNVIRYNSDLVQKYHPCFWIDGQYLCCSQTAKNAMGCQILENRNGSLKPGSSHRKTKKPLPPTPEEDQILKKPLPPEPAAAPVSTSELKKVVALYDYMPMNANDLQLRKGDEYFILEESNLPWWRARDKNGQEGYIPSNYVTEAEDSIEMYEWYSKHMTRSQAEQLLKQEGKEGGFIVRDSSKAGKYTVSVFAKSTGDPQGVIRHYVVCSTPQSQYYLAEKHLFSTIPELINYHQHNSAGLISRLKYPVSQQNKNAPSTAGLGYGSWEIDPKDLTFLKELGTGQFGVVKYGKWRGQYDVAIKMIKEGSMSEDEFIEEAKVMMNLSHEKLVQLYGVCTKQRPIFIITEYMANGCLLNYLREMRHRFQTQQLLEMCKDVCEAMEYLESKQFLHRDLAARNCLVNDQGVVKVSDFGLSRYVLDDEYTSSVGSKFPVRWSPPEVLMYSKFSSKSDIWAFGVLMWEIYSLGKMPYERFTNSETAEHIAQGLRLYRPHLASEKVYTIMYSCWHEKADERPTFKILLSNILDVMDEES
pIC50: −log10 of the molar value.

The reported value for C=CC(=O)Nc1cccc(Nc2nc(Nc3ccc(OC)nc3)ncc2C2CC2)c1 in terms of pIC50 is > 8.00

The reported value for COCCOc1ccc(Nc2ncc(F)c(Nc3cccc(NC(=O)/C=C/CN4CC[C@@H](O)C4)c3)n2)cc1 in terms of pIC50 is > 8.00

The reported value for CC(C)=CC(=O)c1cccc(Nc2nc(Nc3cccc(S(N)(=O)=O)c3)ncc2C)c1 in terms of pIC50 is 7.00 to 8.00

***
The reported value for C=CC(=O)N1CCc2ccc(Nc3nc(Nc4ccc(OCCOC)cc4)ncc3F)cc21 in terms of pIC50 is > 8.00
